Reference source for all entries: patent US6284914A

Would you kindly list pIC50 for each of these compounds?
target: collagenase (MMP-1) (Homo sapiens, UniProt P03956); construct: endogenous in cells; host or cells: human fibroblast; test: Assay for Collagenase Inhibitory Activity (MMP-1); assay type: biochemical; settings: fluorescein-labeled bovine type I collagen substrate, 35° C., 2 hours, pH 7.5; read-out: Inhibitory activities for matrix metalloproeinases (MMPs), MMP-1, IC50 value
Structures can show the parent of a compound that is named as a salt.
// scale note: pIC50 = -log10(conc_M); give the bare number

[ask] pIC50 lookup needed for CNC(=O)[C@H](Cc1ccc(CNC(=N)c2ccccc2)cc1)NC(=O)[C@H](CC(C)C)C(CCCc1ccccc1)C(=O)NO (stereo partly drawn) [Example 12] , thanks.
[reply] 8.00

[ask] Same for CNC(=O)[C@H](Cc1ccc(S(=O)(=O)O)cc1)NC(=O)[C@H](CC(C)C)C(CSc1cccs1)C(=O)NO (single isomer, unassigned) [Example 5 (Isomer A), Monosodium Salt]
[reply] 8.10

[ask] Same for CC(C)C[C@@H](C(=O)N[C@@H](Cc1ccc(OS(=O)(=O)O)cc1)C(=O)Nc1cccc2ccccc12)C(CCCc1ccccc1)C(=O)NO (stereo partly drawn) [Example 18, Monosodium Salt]
[reply] 6.30

----------
Molecular target: collagenase (MMP-1) (Homo sapiens, UniProt P03956)
Construct: endogenous in cells; host or cells: human fibroblast
Sequence (P03956 100-469): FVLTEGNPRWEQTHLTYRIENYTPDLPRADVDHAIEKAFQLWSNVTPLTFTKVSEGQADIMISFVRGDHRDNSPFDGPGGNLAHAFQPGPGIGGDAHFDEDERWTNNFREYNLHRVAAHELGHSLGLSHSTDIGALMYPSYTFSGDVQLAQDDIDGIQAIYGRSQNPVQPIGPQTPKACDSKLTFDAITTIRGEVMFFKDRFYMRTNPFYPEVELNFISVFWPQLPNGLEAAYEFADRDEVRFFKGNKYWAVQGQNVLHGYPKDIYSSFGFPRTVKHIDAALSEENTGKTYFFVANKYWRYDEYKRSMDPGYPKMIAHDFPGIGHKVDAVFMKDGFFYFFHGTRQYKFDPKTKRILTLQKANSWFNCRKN
Assay: Assay for Collagenase Inhibitory Activity (MMP-1)
Format: biochemical
Conditions: fluorescein-labeled bovine type I collagen substrate, 35° C., 2 hours, pH 7.5; read-out: Inhibitory activities for matrix metalloproeinases (MMPs), MMP-1, IC50 value
Counter-ions that a name gives are not always drawn.
Note to self: IC50 under 5 nM means condition met, ties and anything higher get condition not met.

[ask] For this compound, is IC50 lower than 5 nM? CNC(=O)[C@H](Cc1ccc(CNC(C)=O)cc1)NC(=O)[C@H](CC(C)C)C(CCCc1ccccc1)C(=O)NO (stereo partly drawn) [Example 13]
[reply] condition met

[ask] Same for CNC(=O)[C@H](Cc1ccc(S(=O)(=O)O)cc1)NC(=O)C(CC(=O)NO)CC(C)C (stereo partly drawn) [Example 2, Monosodium Salt]
[reply] condition met

[ask] Same for CNC(=O)[C@H](Cc1ccc(CNC(C)=N)cc1)NC(=O)[C@H](CC(C)C)C(CCCc1ccccc1)C(=O)NO (single isomer, unassigned) [Example 10]
[reply] condition not met

[ask] Same for CCCOC[C@H](C(=O)N[C@@H](Cc1ccc(S(=O)(=O)[O-])cc1)C(=O)NC)C(CSC(C)C)C(=O)NO.[Na+] (mixture of isomers) [Example 6, Monosodium Salt]
[reply] condition not met

[ask] Same for CNC(=O)[C@H](Cc1ccc(CNC(=N)N)cc1)NC(=O)[C@H](CC(C)C)C(CCCc1ccccc1)C(=O)NO (stereo partly drawn) [Example 14]
[reply] condition met
